tested on: NCI-H460 lung; test: NCI tumour cell line growth inhibition, 48 h
test-readout: TGI

                                    compound  target_of_assay  endpoint_result
 0        O=c1c2ccccc2n(C[C@H]2CO2)c2ccccc12    NCI-H460 lung          4.43 µM
 1      COc1ccc(/C=C/C(=O)c2ccc(SC)cc2)cc1OC    NCI-H460 lung         > 100 µM
 2  O=C(CCc1ccccc1)ON1C(=S)NC(c2ccccc2)(c2ccccc2)C1=S    NCI-H460 lung         > 100 µM
 3  Cn1c(/C=C(\C#N)c2ccccc2)nc2c(N3CCOCC3)nc(Cl)nc21    NCI-H460 lung          3.72 µM
 4  O=C(Nc1cccc(Cl)c1)c1ccc(NC2=C(Cl)C(=O)N(Cc3ccccc3)C2=O)cc1    NCI-H460 lung        > 50.9 µM
 5   Cc1cc2nc3c4cc(N)ccc4n(CCN(C)C)c3nc2cc1C    NCI-H460 lung          2.95 µM
 6  CC(=O)OC1COC(Nc2ccc(C(C)=O)cc2)C(OC(C)=O)C1OC(C)=O (centres undefined)    NCI-H460 lung         > 100 µM
 7  COC(=O)C(=O)OC1(C(C)=O)CC2(c3ccccc3)OC1(c1ccccc1)c1ccccc12 (centres undefined)    NCI-H460 lung          36.2 µM
 8  C=CC(=O)N1CCN(c2nc(=O)n(-c3c(C)ccnc3C(C)C)c3nc(-c4c(O)cccc4F)c(F)cc23)[C@@H](C)C1    NCI-H460 lung         > 100 µM
 9  O=C1c2ccccc2C(=O)[C@@]23O[C@@]12C1(Oc2cccc4cccc(c24)O1)[C@@H]1O[C@@H]1[C@@H]3O    NCI-H460 lung          23.6 µM
10            Nc1nc(N)c(C2=CCNCC2)c(=O)[nH]1    NCI-H460 lung         > 100 µM
11  CC(=O)OCC1OC(n2c(-c3ccccc3)c(C(C)=O)c(-c3ccc(Cl)cc3)c(C#N)c2=S)C(OC(C)=O)C(OC(C)=O)C1OC(C)=O (centres undefined)    NCI-H460 lung         > 100 µM
12  c1cc(Sc2nc(Sc3ccncc3)nc(Sc3ccncc3)n2)ccn1    NCI-H460 lung         > 100 µM
13  Cc1ccc(/C=C2/SC(Nc3nc(-c4csc(NC5=NC(=O)/C(=C\c6ccc(C)cc6)S5)n4)cs3)=NC2=O)cc1    NCI-H460 lung          > 50 µM
14  COc1cc(-c2nn(-c3cccc(NC(=O)Nc4cc(C(F)(F)F)cc(C(F)(F)F)c4)c3)cc2-c2ccncc2)ccc1Cl    NCI-H460 lung          1.64 µM
15  COc1ccc(/C=C\c2cc(OC)c(OC)c(OC)c2)cc1OC(=O)c1cccc(Cn2cc(CCOC(=O)[C@H](N)Cc3cn(C)c4ccccc34)nn2)c1    NCI-H460 lung        > 42.8 µM
16  N#CC(C(=O)CCC(=O)C(C#N)c1ccccc1)c1ccccc1 (centres undefined)    NCI-H460 lung         > 100 µM
17   COc1ccc(/C=C/C(=O)/C=C/c2ccc(OC)cc2)cc1    NCI-H460 lung         > 100 µM
18  O=c1ccn(C2OC(CO/N=C/c3ccc(O)c(O)c3O)C(O)C2O)c(=O)[nH]1 (centres undefined)    NCI-H460 lung         > 100 µM
